All values here come from ChEMBL document CHEMBL1671659.

Test system: Staphylococcus aureus
procedureDetails: Antibacterial activity against trimethoprim-resistant Staphylococcus aureus BAS003908 infected in NMRI mouse model of septicemia
Type: functional
resultType: ED50 (mg/kg)
Write down the numeric answer in mg/kg and omit the unit.

Recorded ED50 for "COc1cc(Cc2cnc(N)nc2N)cc(OC)c1OC" on Staphylococcus aureus was 6.25

Recorded ED50 for COc1ncc(C2c3ccccc3C=NN2C(=O)/C=C/c2cc(Cc3cnc(N)nc3N)cc(OC)c2OC)cn1 (centres undefined) on Staphylococcus aureus was 3.1

Recorded ED50 for COc1cc(Cc2cnc(N)nc2N)cc(/C=C/C(=O)N2N=Cc3ccccc3C2c2cnc(N3CCOCC3)nc2)c1OC (centres undefined) on Staphylococcus aureus was 1.6

Recorded ED50 for COc1cc(Cc2cnc(N)nc2N)cc(/C=C/C(=O)N2N=Cc3ccccc3C2c2cnc(N(C)C)nc2)c1OC (centres undefined) on Staphylococcus aureus was 3.1
